Molecular target: IRAK4 (Homo sapiens (Human), UniProt Q9NWZ3)
Sequence (Q9NWZ3 whole entry, species assumed): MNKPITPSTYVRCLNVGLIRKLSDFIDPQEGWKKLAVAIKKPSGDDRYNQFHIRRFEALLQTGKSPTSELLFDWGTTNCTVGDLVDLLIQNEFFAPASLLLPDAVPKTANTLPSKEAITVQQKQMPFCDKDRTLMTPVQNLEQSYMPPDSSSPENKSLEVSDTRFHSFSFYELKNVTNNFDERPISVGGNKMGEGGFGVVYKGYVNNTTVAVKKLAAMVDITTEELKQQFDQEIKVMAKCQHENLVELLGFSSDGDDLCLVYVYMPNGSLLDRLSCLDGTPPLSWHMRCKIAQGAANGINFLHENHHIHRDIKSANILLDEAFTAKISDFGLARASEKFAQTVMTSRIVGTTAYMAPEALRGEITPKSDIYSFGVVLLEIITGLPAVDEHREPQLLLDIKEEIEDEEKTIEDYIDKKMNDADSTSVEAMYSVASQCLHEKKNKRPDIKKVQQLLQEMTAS
Assay: IRAK4 Biochemical HTRF Kinase Assay
Details: Table 5; multiple runs; read-out: IRAK4 HTRF biochemical: IC50
pIC50: −log10 of the molar value.
EXPERIMENTAL_READOUT: pIC50

Example entries and their recorded answers appear below.
CNc1cc(-c2ccc3cc(C#N)cnn23)ncc1-c1nnc(C23CCC(NC(=O)[C@H]4CC[C@H](C(=O)N[C@H](C(=O)N5C[C@H](O)C[C@H]5C(=O)NCc5ccc(-c6scnc6C)cc5)C(C)(C)C)CC4)(CC2)CC3)s1 :: 8.74
CC(C)Nc1cc(-c2ccc3cc(C#N)cnn23)ncc1-c1nnc(N2CCC3(CCN(Cc4ccc5c(c4)C(=O)N(C4CCC(=O)NC4=O)C5=O)CC3)CC2)s1 (centres unmarked) :: 8.74

A = CC(C)Nc1cc(-c2ccc3cc(C#N)cnn23)ncc1-c1nnc(N2CCN(CCCc3cccc4c3CN(C3CCC(=O)NC3=O)C4=O)CC2)s1 (centres unmarked)
B = CC(C)Nc1cc(-c2ccc3cc(C#N)cnn23)ncc1-c1nnc(N2CCN(CC3CCN(c4ccc(C(=O)NC5CCC(=O)NC5=O)nc4)CC3)CC2)s1 (centres unmarked)
*Q* Between A and B , which one shows the smaller pIC50 number? Identify your pick by its label.
*A* B
